- System: B16F10 cells (mouse melanoma [malignant melanoma] cells)
OUTCOME_MEASURE: log10(GI50) (log10 of the value in nM)

STRUCTURE_NOTATION: CCN(C)c1nc(SCc2ccc(OC)c(F)c2)nc2c1ncn2C
log10(GI50): 2.48

STRUCTURE_NOTATION: CCc1nc2c(N3CCOCC3)nc(SCc3ccc(OC)cc3)nc2n1C
log10(GI50): 2.61

STRUCTURE_NOTATION: CCNc1nc(SCc2ccc(OC)c(C#N)c2)nc2c1ncn2C
log10(GI50): 2.11

STRUCTURE_NOTATION: COc1ccc(CSc2nc(N(C)C)c3ncn(C)c3n2)cc1N
log10(GI50): 2.65

STRUCTURE_NOTATION: CCOc1ccc(CSc2nc(NC)c3ncn(C)c3n2)cc1N
log10(GI50): 2.00

STRUCTURE_NOTATION: CCOc1ccc(CSc2nc(N3CCOCC3)c3nc(CC)n(CC)c3n2)cc1F
log10(GI50): 2.57

STRUCTURE_NOTATION: CCOc1ccc(CSc2nc(N3C=COCC3)c3ncn(CC)c3n2)cc1N
log10(GI50): 3.15

STRUCTURE_NOTATION: COc1ccc(CSc2nc(-c3c(C)noc3C)c3ncn(C)c3n2)cc1
log10(GI50): 2.04

----------
Measurement record for B16F10 cells (mouse melanoma [malignant melanoma] cells); quantity recorded: GI50.
OUTCOME_MEASURE: GI50

MOLECULE: CNc1nc(SCc2ccc(OC)c(C#N)c2)nc2c1ncn2C [Compound 72]
OUTCOME_MEASURE: GI50
REPORTED_VALUE: < 0.04 µM
--
MOLECULE: COc1ccc(CSc2nc(N3C=COCC3)c3ncn(C)c3n2)cc1F [Compound 152]
OUTCOME_MEASURE: GI50
REPORTED_VALUE: < 0.04 µM
--
MOLECULE: CNc1nc(SCc2ccc(OC)c(F)c2)nc2c1ncn2C [Compound 73]
OUTCOME_MEASURE: GI50
REPORTED_VALUE: < 0.04 µM
--
MOLECULE: COc1ccc(CSc2nc(N3C=COCC3)c3ncn(C)c3n2)cc1C#N [Compound 153]
OUTCOME_MEASURE: GI50
REPORTED_VALUE: < 0.04 µM

----------
Measurement record for PC-3 cells (human prostate cancer cells); quantity recorded: GI50.

STRUCTURE_NOTATION: CCN(C)c1nc(SCc2ccc(OC)c(F)c2)nc2c1ncn2C
UNIT_ABBREV: nM
GI50: 300
--
STRUCTURE_NOTATION: CCOc1ccc(CSc2nc(N3CCOCC3)c3nc(CC)n(C)c3n2)cc1F
UNIT_ABBREV: nM
GI50: 320
--
STRUCTURE_NOTATION: COc1ccc(CSc2nc(N(C)OC)c3ncn(C)c3n2)cc1
UNIT_ABBREV: nM
GI50: 560

----------
- Test system: B16F10 cells (mouse melanoma [malignant melanoma] cells)
Note to self: GI50 under 1 µM means yes (1), ties and anything higher get no (0).

STRUCTURE_NOTATION: CCc1nc2c(N3CCOCC3)nc(SCc3ccc(OC)cc3OCc3ccccc3)nc2n1C
SYSTEM_NAME: B16F10 cells (mouse melanoma [malignant melanoma] cells)
CLASS: no (0)
//
STRUCTURE_NOTATION: CCc1nc2c(N3C=COCC3)nc(SCc3ccc(OC)cc3)nc2n1C
SYSTEM_NAME: B16F10 cells (mouse melanoma [malignant melanoma] cells)
CLASS: yes (1)
//
STRUCTURE_NOTATION: CCc1nc2c(N(C)C)nc(SCc3ccc(OC)cc3)nc2n1C
SYSTEM_NAME: B16F10 cells (mouse melanoma [malignant melanoma] cells)
CLASS: yes (1)
//
STRUCTURE_NOTATION: CCc1nc2c(N3CCOCC3)nc(SCc3ccc(C)cc3)nc2n1C
SYSTEM_NAME: B16F10 cells (mouse melanoma [malignant melanoma] cells)
CLASS: no (0)
//
STRUCTURE_NOTATION: COc1ccc(CSc2nc(-c3ccco3)c3ncn(C)c3n2)cc1
SYSTEM_NAME: B16F10 cells (mouse melanoma [malignant melanoma] cells)
CLASS: no (0)

Measured values drawn from patent US9132130B2 for this set.
